meta.source: patent US20180296694A1

The entries below come with measured IC50, in vitro cytotoxicity (WST-8, 5 days), SKOV-6 cells, ADC values attached.
# target entity: folate receptor alpha (FRα) on cells (human, UniProt P15328 25-234)
# Sequence (P15328 25-234): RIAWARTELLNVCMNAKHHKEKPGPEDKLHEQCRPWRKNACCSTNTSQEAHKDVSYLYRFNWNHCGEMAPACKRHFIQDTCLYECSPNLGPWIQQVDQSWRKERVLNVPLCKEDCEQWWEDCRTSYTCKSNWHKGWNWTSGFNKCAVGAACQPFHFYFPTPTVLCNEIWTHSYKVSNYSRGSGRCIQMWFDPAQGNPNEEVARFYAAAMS
# assay remarks: cell-based or functional assay
metric: IC50, in vitro cytotoxicity (WST-8, 5 days), SKOV-6 cells, ADC

{"binder": "conjugate 17g (antibody, human IgG1, kappa, V domains shown, thio-peptide-maytansinoid 14g linked through sulfo-GMBS to antibody amines (Example 4)) VH: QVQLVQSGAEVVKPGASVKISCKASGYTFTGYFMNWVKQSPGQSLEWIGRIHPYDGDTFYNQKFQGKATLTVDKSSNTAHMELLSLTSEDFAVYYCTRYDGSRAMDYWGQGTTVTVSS VL: DIVLTQSPLSLAVSLGQPAIISCKASQSVSFAGTSLMHWYHQKPGQQPRLLIYRASNLEAGVPDRFSGSGSKTDFTLTISPVEAEDAATYYCQQSREYPYTFGGGTKLEIKR", "reported value": "> 10 nM"}
{"binder": "conjugate 17h (antibody, human IgG1, kappa, V domains shown, thio-peptide-maytansinoid 14h linked through sulfo-GMBS to antibody amines (Example 4)) VH: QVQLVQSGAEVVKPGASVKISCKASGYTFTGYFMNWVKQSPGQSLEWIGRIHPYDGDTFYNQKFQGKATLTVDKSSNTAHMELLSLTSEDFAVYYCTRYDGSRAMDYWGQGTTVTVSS VL: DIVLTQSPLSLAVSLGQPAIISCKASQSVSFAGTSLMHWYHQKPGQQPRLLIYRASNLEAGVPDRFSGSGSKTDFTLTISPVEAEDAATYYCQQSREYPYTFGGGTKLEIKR", "reported value": "> 10 nM"}
{"binder": "Mov19v1.6-GMBS-dAlalAla-PAB-DM1 (conjugate 4b) (antibody, human IgG1, kappa, V domains shown, D-Ala-L-Ala-PAB-DM1 linked through GMBS, about 3.5 DM/Ab) VH: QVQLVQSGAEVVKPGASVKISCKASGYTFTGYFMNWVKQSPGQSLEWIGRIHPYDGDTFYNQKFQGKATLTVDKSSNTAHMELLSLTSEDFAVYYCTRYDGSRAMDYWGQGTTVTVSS VL: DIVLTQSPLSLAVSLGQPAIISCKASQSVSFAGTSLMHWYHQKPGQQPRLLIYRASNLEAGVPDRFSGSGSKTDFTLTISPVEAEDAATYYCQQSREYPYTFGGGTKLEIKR", "reported value": "0.9 nM"}
{"binder": "M9346A-sGMBS-LDL-DM (conjugate 17c) (antibody, human IgG1, kappa, V domains shown, maytansinoid LDL-DM (compound 14c, L-Ala-D-Ala-L-Ala) linked through sulfo-GMBS to antibody amines, 3.7 mol LDL-DM/mol antibody) VH: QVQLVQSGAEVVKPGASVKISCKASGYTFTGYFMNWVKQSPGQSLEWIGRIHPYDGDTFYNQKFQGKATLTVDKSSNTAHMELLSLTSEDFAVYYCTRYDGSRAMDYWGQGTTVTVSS VL: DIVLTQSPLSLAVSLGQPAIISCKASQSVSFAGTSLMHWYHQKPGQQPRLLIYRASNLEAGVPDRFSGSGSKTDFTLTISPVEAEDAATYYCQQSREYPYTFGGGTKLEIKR", "reported value": "> 10 nM"}
